- Assay system: T1, human FSTL1 (construct not stated) (human, UniProt Q12841 21-308)
- T1 construct: also called human FSTL1 antigen; FSTL1 (R&D Systems, Inc. Cat#1694-FN-050)
- T1 sequence: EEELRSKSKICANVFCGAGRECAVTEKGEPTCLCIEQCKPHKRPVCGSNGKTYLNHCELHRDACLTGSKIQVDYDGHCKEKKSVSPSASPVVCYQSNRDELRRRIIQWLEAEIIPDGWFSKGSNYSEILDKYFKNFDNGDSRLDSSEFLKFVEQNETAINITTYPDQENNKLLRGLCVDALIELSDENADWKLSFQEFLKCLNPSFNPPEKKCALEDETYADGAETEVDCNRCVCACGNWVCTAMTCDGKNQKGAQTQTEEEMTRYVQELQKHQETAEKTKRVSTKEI
- Measurement description: SPR (Biacore T-200), captured antibody, human FSTL1 10 µg/ml
The following binders are shown together with reported Binding amount (RU) values.

{"Binder": "anti-FSTL1 antibody clone #8-4 (chicken-mouse chimeric antibody) (antibody, mouse IgG1, kappa, V domains shown) VH: AVTLDESGGGLQTPGGGLSLVCKGSGFTLSSFNMFWVRQAPGKGLEWVAGVGKDGGTAYGAAVDGRATISRDSGQSTVRLQLNNLRAEDTGTYFCAKAAGGCSYSWCGAYVGDLDAWGHGTEVIVSS VL: ASSQPSSVSANPGETVKITCSGGSGYYYGWYQQKSPGSAPVTVIYNNDNKPSDIPSRFSGSKSGSTGTLTITGVQVEDEAVYFCGGYDNSGTGIFGAGTTLTVLG", "Binding amount (RU)": 11.6}
{"Binder": "anti-FSTL1 antibody clone #8-1 (chicken-mouse chimeric antibody) (antibody, mouse IgG1, kappa, V domains shown) VH: AVTLDESGGGLQTPGGALSLVCKGSGFTFSSFNMFWVRQAPGKGLEWVAGIGKDGVPKYGAAVDGRATISKDNGQSTMRLQLNNLRAEDTGTYFCAKAAGGCSYDWCGIYAGDIDTWGHGTEVIVSS VL: ASTQPSSVSANPGEAVKITCSGGSGSYYGWYQQKSPGSAPVTVIYNNNQRPSDIPSRFSGSKSGSTATLTITGVQAEDEAVYFCGGYDSSSGHGGIFGAGTTLTVLG", "Binding amount (RU)": 11.1}
{"Binder": "anti-FSTL1 antibody clone #8-7 (chicken-mouse chimeric antibody) (antibody, mouse IgG1, kappa, V domains shown) VH: AVTLDESGGGLQTPGGGLSLVCKGSGFTFSSFNMFWVRQAPGKGLEWVAGIGKDGVPKYGAAVDGRATISKDNGQSTLRLQLNNLRAEDTGTYFCAKAAGGCSYDWCGIYAGDIDTWGHGTEVIVSS VL: ASTQPSSVSANPGEAVKITCSGGSGSYYGWYQQKSPGSAPVTVIYNNNQRPSDIPSRFSGSKSGSTATLTITGVQAEDEAVYFCGGYDSSTGHGGIFGAGTTLTVLG", "Binding amount (RU)": 12.8}
{"Binder": "anti-FSTL1 antibody clone #13 (chicken-mouse chimeric antibody) (antibody, mouse IgG1, kappa, V domains shown) VH: AVTLDESGGGLQTPGGGLSLVCKASGFTFSSVTMQWVRQAPGKGLEWVASICSGSSTYYGPAVKGRATISRDNGQNTVRLQLNNLRAEDTATYYCAKIVGRGRWSCTSAAYNIDAWGHGTEVIVSS VL: ASTQPSSVSANPGETVKITCSGGGNNYGWYQQKSPGSAPVTVIYNNNNRPSNIPSRFSGSKSGSTNTLTITGVQAEDEAVYYCGSYDSSSDSGIFGAGTTLTVLG", "Binding amount (RU)": 8.7}
{"Binder": "anti-FSTL1 antibody clone #6-55 (chicken-mouse chimeric antibody) (antibody, mouse IgG1, kappa, V domains shown, also called Anti-FSTL1 mAb (#6-55)) VH: AVTLDESGGGLQTPGGALSLVCKGSGFTFTSVTMQWVRQAPGKGLEWVASVCSGSSTYYAPAVKGRATISRDNGQSTVRLQLSNLRPEDTGTYYCAKIAGRARWSCTSAAYNIDAWGHGTEVIVSS VL: ASTQPSSVSAIPGETVKITCSGGGNNYGWYQQRSPGSAPVTVIYYNDNRPSNIPSRFSGSTSGSTSTLTITGVQADDEAIYYCGSWDSNTDSGIFGAGTTLTVLG", "Binding amount (RU)": 11}
{"Binder": "anti-FSTL1 antibody clone #33 (chicken-mouse chimeric antibody) (antibody, mouse IgG1, kappa, V domains shown) VH: AVTLDESGGGLQTPGGGLSLVCKASGFTFSSFNMNWVRQAPGKGLEYVAEISGTGSSTYYGSAVKGRATISRDNGQSTVRLQLNNLRAEDTATYFCARGDGAYSIDAWGHGTEVIVSS VL: ASTQPSSVSANPGETVEITCSGDSSYYGWFQQKSPGSAPVTVIYDNTNRPSDIPSRFSGSKSGSTATLTITGVRAEDEAVYYCGGYDSSTYDGIFGAGTTLTVLG", "Binding amount (RU)": 10.9}
